target: hemolysin alpha from Staphylococcus aureus (Staphylococcus aureus, UniProt P09616); assay: cell-based
Sequence (P09616 27-319 limits assumed): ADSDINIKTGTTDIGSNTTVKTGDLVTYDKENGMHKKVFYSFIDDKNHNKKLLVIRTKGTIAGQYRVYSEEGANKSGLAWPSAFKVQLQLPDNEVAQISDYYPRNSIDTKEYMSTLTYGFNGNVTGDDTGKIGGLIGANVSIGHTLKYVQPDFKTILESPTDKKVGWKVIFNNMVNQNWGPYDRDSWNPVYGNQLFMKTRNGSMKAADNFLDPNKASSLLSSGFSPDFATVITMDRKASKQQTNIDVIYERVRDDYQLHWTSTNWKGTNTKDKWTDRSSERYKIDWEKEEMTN
PROPERTY NAME: IC50

Worked cases, IC50 given:
• Cc1cc2[nH]c(=O)c(=O)[nH]c2cc1S(=O)(=O)Nc1ccc(-c2ccc(F)c(Cl)c2F)c(Cl)c1 = < 30 nM
• Cc1cc2[nH]c(=O)c(=O)[nH]c2cc1S(=O)(=O)Nc1ccc(-c2sccc2C)c(Cl)c1 = 30 to 100 nM

[Q] Tell me its IC50 given `Cc1cc2[nH]c(=O)c(=O)[nH]c2c(F)c1S(=O)(=O)Nc1ccc(Br)c(Cl)c1` as the entry.
[A] 30 to 100 nM

[Q] Tell me its IC50 given `Cc1ccccc1-c1ccc(NS(=O)(=O)c2cc3[nH]c(=O)c(=O)[nH]c3cc2C)cc1C` as the entry.
[A] 100 to 1000 nM

[Q] Tell me its IC50 given `Cc1cc(NS(=O)(=O)c2cc3[nH]c(=O)c(=O)[nH]c3cc2Cl)cc(C)c1-c1ccsc1` as the entry.
[A] 100 to 1000 nM

[Q] Tell me its IC50 given `O=c1[nH]c2cc(F)c(S(=O)(=O)Nc3ccc(C(F)(F)F)cc3)cc2[nH]c1=O` as the entry.
[A] 1000 to 3500 nM

[Q] Tell me its IC50 given `Cc1cc2[nH]c(=O)c(=O)[nH]c2cc1S(=O)(=O)Nc1ccc(-c2ccccc2C(F)(F)F)c(Cl)c1` as the entry.
[A] 100 to 1000 nM
